Where these numbers come from: patent US20260116991A1

molecular target: biotinylated labeled human GPC3 protein (produced in-house) (human, UniProt P51654 25-559, limits assumed, biotinylated (Dojindo, Cat. No. LK03); sites not stated); test: ELISA, biotinylated human GPC3 protein
OD450 at 0.11 nM for assorted binders

{"binder": "hAb007LH3L1a (antibody, human IgG1, V domains shown, Humanized F3.81.19; VH H3 + VL L1a; expressed as human IgG1) VH: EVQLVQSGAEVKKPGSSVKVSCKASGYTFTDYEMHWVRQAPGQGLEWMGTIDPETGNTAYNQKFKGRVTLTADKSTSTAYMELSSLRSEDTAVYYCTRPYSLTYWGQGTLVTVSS VL: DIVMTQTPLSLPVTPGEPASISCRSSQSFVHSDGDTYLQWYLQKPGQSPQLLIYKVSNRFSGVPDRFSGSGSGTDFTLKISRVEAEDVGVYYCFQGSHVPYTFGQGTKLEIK", "units-text": "OD450", "OD450 at 0.11 nM": 0.353}
{"binder": "hAb005LH3L1a (antibody, human IgG1, V domains shown, Humanized F3.54.12; VH H3 + VL L1a; expressed as human IgG1) VH: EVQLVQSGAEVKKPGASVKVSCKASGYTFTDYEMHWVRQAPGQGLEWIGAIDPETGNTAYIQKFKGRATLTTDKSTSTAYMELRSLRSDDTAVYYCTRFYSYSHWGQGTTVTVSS VL: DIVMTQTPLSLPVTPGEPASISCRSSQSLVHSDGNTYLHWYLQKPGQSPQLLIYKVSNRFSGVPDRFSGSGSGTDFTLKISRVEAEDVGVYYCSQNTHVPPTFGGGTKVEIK", "units-text": "OD450", "OD450 at 0.11 nM": 0.05}
{"binder": "hAb006LH1L1a (antibody, human IgG1, V domains shown, Humanized F3.38.7; VH H1 + VL L1a; expressed as human IgG1) VH: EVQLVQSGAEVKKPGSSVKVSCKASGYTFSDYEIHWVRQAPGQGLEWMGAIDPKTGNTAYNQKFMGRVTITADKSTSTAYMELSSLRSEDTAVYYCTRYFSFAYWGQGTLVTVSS VL: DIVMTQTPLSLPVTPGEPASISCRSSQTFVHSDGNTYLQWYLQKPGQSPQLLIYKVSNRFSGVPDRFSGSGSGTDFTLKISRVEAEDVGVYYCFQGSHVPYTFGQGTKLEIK", "units-text": "OD450", "OD450 at 0.11 nM": 0.268}
